SYSTEM NAME: IRAK
PROTOCOL SUMMARY: spectrophotometric coupled-enzyme kinase inhibition assay
RUN PARAMETERS: read-out: Ki or IC50 IRAK
Description: Affinity was measured using a kinase inhibition assay. Compounds were assayed for the inhibition of various kinases using a modification of a spectrophotometric coupled-enzyme assay. […] The decrease of absorbance at 340 nm was monitored as a function of time for 10 minutes. […]
Listed next: entries and their corresponding Ki.

| SMI | SYSTEM NAME | Ki |
| --- | --- | --- |
| Fc1ccc(-c2noc(CN3CCCCC3)c2-c2ccnc(NC3CCCCC3)n2)cc1 | IRAK | > 1000 nM |

Note to self: Ki recorded for OC1CCN(Cc2onc(-c3ccc(F)cc3)c2-c2ccnc(NC3CCCCC3)n2)CC1 was > 1000 nM

Note to self: Ki recorded for OC[C@@H]1CCCN1Cc1onc(-c2ccc(F)cc2)c1-c1ccnc(NC2CCCCC2)n1 was > 1000 nM

---

SYSTEM NAME: UniProtKB P45985
Sequence (P45985 whole entry, species assumed): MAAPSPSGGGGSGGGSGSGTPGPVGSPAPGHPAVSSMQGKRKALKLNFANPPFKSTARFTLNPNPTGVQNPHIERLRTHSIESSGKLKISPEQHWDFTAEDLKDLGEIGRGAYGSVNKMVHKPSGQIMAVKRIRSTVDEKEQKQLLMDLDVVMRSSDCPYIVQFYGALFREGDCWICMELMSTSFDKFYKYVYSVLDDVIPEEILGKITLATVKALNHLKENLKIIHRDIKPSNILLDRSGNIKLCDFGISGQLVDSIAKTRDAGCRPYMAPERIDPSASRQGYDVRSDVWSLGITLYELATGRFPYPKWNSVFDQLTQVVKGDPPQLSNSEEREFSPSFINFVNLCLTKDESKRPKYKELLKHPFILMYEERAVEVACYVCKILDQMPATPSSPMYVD
PROTOCOL SUMMARY: spectrophotometric coupled-enzyme kinase inhibition assay
Format: biochemical
RUN PARAMETERS: read-out: Ki or IC50 MKK4
Listed next: entries and their corresponding Ki.

Here is how some compounds turned out for Ki.
| SMI | VALUE OBSERVED |
| --- | --- |
| Fc1ccc(-c2noc(CN3CCCCC3)c2-c2ccnc(NC3CCCCC3)n2)cc1 | > 1000 nM |
| OC[C@@H]1CCCN1Cc1onc(-c2ccc(F)cc2)c1-c1ccnc(NC2CCCCC2)n1 | > 1000 nM |

Consider the additional compound presented here.
Kindly note: UniProtKB P45985, OC1CCN(Cc2onc(-c3ccc(F)cc3)c2-c2ccnc(NC3CCCCC3)n2)CC1 , Ki value reported: > 1000 nM

---

SYSTEM NAME: JAK2 (Homo sapiens, UniProt O60674)
MEASURED PROPERTY: Ki

Kindly note: JAK2 (Homo sapiens, UniProt O60674), Fc1ccc(-c2noc(CN3CCCCC3)c2-c2ccnc(NC3CCCCC3)n2)cc1 , Ki value reported: > 1 µM

---

Listed next: entries and their corresponding Ki.
SYSTEM NAME: MKK6 (Homo sapiens)
Sequence (P52564 whole entry, species assumed): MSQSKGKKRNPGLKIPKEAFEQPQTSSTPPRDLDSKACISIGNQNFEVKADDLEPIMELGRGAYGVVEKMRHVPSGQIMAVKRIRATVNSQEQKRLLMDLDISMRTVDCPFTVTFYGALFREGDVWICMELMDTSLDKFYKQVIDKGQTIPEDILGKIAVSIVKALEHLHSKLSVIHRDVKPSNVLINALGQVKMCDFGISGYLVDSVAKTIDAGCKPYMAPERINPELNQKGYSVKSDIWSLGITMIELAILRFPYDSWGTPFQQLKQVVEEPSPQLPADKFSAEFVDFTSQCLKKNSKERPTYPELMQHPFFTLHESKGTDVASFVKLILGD
PROTOCOL SUMMARY: spectrophotometric coupled-enzyme kinase inhibition assay
Type: biochemical
RUN PARAMETERS: read-out: Ki or IC50 MKK6

| SMI | SYSTEM NAME | Ki |
| --- | --- | --- |
| OC[C@@H]1CCCN1Cc1onc(-c2ccc(F)cc2)c1-c1ccnc(NC2CCCCC2)n1 | MKK6 (Homo sapiens) | > 1000 nM |
| OC1CCN(Cc2onc(-c3ccc(F)cc3)c2-c2ccnc(NC3CCCCC3)n2)CC1 | MKK6 (Homo sapiens) | > 1000 nM |

Note to self: Ki recorded for Fc1ccc(-c2noc(CN3CCCCC3)c2-c2ccnc(NC3CCCCC3)n2)cc1 was > 1000 nM

---

SYSTEM NAME: MAPKAP2 (Homo sapiens)
Sequence (P49137 whole entry): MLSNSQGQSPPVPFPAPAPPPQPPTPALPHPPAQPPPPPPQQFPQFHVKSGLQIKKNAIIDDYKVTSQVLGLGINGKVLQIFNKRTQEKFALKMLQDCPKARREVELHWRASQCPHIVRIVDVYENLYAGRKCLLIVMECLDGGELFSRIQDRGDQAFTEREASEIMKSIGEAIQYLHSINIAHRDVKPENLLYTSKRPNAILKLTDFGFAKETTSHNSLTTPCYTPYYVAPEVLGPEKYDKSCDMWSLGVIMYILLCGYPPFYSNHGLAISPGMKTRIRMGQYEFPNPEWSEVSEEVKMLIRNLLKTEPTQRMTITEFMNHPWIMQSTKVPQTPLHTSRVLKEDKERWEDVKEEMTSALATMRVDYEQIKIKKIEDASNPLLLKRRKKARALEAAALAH
PROTOCOL SUMMARY: spectrophotometric coupled-enzyme kinase inhibition assay
Assay type: biochemical
RUN PARAMETERS: read-out: Ki or IC50 MAPKAP2
Listed next: entries and their corresponding Ki.

| SMI | SYSTEM NAME | VALUE OBSERVED |
| --- | --- | --- |
| OC1CCN(Cc2onc(-c3ccc(F)cc3)c2-c2ccnc(NC3CCCCC3)n2)CC1 | MAPKAP2 (Homo sapiens) | > 1000 nM |

Note to self: Ki recorded for Fc1ccc(-c2noc(CN3CCCCC3)c2-c2ccnc(NC3CCCCC3)n2)cc1 was > 1000 nM

Note to self: Ki recorded for OC[C@@H]1CCCN1Cc1onc(-c2ccc(F)cc2)c1-c1ccnc(NC2CCCCC2)n1 was > 1000 nM

---

Listed next: entries and their corresponding Ki.
SYSTEM NAME: PLK1 (Homo sapiens, UniProt P53350)
Sequence (P53350 whole entry, species assumed): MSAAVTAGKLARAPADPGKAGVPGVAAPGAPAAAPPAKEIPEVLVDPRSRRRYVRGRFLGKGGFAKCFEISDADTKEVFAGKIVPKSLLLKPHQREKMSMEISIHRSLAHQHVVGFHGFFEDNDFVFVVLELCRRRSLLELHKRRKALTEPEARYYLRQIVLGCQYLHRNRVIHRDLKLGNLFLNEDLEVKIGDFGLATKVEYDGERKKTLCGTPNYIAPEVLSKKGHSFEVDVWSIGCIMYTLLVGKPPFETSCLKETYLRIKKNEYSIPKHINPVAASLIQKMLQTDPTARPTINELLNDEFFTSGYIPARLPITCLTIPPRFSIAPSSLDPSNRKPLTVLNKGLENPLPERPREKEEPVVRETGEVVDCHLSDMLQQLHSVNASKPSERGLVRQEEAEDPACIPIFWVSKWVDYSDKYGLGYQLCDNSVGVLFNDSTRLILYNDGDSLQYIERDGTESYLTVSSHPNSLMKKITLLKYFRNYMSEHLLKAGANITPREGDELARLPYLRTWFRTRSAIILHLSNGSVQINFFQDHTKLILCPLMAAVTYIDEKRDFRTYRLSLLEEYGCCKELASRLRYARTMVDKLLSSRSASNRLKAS

| SMI | Ki |
| --- | --- |
| Fc1ccc(-c2noc(CN3CCCCC3)c2-c2ccnc(NC3CCCCC3)n2)cc1 | > 1 µM |

Kindly note: PLK1 (Homo sapiens, UniProt P53350), OC[C@@H]1CCCN1Cc1onc(-c2ccc(F)cc2)c1-c1ccnc(NC2CCCCC2)n1 , Ki value reported: > 1 µM

Kindly note: PLK1 (Homo sapiens, UniProt P53350), OC1CCN(Cc2onc(-c3ccc(F)cc3)c2-c2ccnc(NC3CCCCC3)n2)CC1 , Ki value reported: > 1 µM

---

SYSTEM NAME: PRAK (Homo sapiens)
Sequence (Q8IW41 1-473): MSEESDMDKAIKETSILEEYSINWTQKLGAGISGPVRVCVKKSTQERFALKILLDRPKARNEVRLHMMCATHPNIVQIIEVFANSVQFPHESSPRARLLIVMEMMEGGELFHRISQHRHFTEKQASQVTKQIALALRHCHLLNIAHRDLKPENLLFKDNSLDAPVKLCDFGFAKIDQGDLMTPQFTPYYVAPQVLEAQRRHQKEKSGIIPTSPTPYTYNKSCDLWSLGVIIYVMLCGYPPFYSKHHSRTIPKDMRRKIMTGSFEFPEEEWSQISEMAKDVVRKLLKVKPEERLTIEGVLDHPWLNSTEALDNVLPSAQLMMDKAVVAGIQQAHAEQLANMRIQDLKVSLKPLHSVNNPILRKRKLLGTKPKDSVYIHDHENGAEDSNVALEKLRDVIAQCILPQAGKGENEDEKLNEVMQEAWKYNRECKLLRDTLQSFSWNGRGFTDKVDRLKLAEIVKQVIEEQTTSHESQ
Listed next: entries and their corresponding Ki.

Here is how some compounds turned out for Ki.
| COMPOUND | MEASURED PROPERTY | VALUE OBSERVED |
| --- | --- | --- |
| Fc1ccc(-c2noc(CN3CCCCC3)c2-c2ccnc(NC3CCCCC3)n2)cc1 [V-05-015] | Ki | > 1000 nM |
| OC1CCN(Cc2onc(-c3ccc(F)cc3)c2-c2ccnc(NC3CCCCC3)n2)CC1 [V-05-013] | Ki | > 1000 nM |

Note to self: Ki recorded for OC[C@@H]1CCCN1Cc1onc(-c2ccc(F)cc2)c1-c1ccnc(NC2CCCCC2)n1 [V-05-014] was > 1000 nM

---

SYSTEM NAME: IGF1R (Homo sapiens, UniProt P08069)
Sequence (P08069 31-1367, species assumed): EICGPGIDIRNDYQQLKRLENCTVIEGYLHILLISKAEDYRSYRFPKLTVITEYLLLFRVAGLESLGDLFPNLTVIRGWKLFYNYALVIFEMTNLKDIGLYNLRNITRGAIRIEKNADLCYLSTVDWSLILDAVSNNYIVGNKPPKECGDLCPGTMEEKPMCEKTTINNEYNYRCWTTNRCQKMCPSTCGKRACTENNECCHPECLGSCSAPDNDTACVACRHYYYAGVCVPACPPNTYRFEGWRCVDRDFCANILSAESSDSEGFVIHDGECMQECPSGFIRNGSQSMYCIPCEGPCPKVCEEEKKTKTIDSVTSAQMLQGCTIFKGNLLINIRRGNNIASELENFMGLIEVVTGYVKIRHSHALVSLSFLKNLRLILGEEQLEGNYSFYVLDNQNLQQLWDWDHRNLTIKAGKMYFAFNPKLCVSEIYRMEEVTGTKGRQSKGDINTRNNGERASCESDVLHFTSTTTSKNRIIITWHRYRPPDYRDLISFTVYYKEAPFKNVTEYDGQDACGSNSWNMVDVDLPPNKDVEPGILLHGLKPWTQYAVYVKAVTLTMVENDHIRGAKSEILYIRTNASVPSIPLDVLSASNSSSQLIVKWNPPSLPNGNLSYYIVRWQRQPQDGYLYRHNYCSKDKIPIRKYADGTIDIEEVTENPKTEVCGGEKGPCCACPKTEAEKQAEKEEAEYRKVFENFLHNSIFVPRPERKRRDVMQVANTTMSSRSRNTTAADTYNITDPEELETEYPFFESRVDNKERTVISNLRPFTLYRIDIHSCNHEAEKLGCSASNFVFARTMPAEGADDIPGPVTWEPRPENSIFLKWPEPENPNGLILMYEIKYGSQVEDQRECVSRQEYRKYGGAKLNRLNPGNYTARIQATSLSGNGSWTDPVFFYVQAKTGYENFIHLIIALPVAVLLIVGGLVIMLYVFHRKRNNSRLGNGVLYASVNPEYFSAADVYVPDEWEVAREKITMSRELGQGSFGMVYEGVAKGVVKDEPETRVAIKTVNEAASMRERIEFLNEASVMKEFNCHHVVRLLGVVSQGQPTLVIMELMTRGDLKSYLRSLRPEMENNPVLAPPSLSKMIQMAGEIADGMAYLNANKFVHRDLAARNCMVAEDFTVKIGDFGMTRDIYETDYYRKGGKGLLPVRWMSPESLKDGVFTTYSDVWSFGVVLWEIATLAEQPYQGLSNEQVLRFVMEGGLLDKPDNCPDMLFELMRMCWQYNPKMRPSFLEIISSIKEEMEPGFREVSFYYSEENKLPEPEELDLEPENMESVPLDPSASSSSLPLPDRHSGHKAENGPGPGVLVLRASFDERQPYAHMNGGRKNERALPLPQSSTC
PROTOCOL SUMMARY: spectrophotometric coupled-enzyme kinase inhibition assay
Assay type: biochemical
RUN PARAMETERS: read-out: Ki or IC50 IGF1R
pKi: −log10 of the molar value.
MEASURED PROPERTY: pKi

| SMI | SYSTEM NAME | pKi |
| --- | --- | --- |
| OC[C@@H]1CCCN1Cc1onc(-c2ccc(F)cc2)c1-c1ccnc(NC2CCCCC2)n1 | IGF1R (Homo sapiens, UniProt P08069) | < 6.00 |
| Fc1ccc(-c2noc(CN3CCCCC3)c2-c2ccnc(NC3CCCCC3)n2)cc1 | IGF1R (Homo sapiens, UniProt P08069) | < 6.00 |

Consider the additional molecule presented here.
Note to self: pKi recorded for OC1CCN(Cc2onc(-c3ccc(F)cc3)c2-c2ccnc(NC3CCCCC3)n2)CC1 was < 6.00

---

Listed next: entries and their corresponding Ki.
SYSTEM NAME: JNK2 (Homo sapiens, UniProt P45984)
Sequence (P45984 whole entry, species assumed): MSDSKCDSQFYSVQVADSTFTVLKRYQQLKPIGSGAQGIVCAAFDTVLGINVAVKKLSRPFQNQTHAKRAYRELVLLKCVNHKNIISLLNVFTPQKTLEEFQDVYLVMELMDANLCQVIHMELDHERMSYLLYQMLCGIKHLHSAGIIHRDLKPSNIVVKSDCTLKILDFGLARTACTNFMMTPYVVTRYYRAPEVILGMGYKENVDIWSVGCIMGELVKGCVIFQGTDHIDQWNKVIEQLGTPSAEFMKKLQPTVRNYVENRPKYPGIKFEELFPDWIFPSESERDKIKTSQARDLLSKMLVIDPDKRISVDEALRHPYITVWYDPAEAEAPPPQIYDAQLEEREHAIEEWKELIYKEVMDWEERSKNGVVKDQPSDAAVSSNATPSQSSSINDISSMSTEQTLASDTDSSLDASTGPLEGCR
Your answer is read as nM, so omit the unit and give the number.

| MOLECULE | SYSTEM NAME | READING UNIT | Ki |
| --- | --- | --- | --- |
| Fc1ccc(-c2noc(CN3CCCCC3)c2-c2ccnc(NC3CCCCC3)n2)cc1 [V-05-015] | JNK2 (Homo sapiens, UniProt P45984) | nM | 4 |

Consider the additional molecule presented here.
Note to self: Ki recorded for OC[C@@H]1CCCN1Cc1onc(-c2ccc(F)cc2)c1-c1ccnc(NC2CCCCC2)n1 [V-05-014] was 15

---

SYSTEM NAME: TIE2 (Homo sapiens)
Sequence (Q02763 23-1124, species assumed): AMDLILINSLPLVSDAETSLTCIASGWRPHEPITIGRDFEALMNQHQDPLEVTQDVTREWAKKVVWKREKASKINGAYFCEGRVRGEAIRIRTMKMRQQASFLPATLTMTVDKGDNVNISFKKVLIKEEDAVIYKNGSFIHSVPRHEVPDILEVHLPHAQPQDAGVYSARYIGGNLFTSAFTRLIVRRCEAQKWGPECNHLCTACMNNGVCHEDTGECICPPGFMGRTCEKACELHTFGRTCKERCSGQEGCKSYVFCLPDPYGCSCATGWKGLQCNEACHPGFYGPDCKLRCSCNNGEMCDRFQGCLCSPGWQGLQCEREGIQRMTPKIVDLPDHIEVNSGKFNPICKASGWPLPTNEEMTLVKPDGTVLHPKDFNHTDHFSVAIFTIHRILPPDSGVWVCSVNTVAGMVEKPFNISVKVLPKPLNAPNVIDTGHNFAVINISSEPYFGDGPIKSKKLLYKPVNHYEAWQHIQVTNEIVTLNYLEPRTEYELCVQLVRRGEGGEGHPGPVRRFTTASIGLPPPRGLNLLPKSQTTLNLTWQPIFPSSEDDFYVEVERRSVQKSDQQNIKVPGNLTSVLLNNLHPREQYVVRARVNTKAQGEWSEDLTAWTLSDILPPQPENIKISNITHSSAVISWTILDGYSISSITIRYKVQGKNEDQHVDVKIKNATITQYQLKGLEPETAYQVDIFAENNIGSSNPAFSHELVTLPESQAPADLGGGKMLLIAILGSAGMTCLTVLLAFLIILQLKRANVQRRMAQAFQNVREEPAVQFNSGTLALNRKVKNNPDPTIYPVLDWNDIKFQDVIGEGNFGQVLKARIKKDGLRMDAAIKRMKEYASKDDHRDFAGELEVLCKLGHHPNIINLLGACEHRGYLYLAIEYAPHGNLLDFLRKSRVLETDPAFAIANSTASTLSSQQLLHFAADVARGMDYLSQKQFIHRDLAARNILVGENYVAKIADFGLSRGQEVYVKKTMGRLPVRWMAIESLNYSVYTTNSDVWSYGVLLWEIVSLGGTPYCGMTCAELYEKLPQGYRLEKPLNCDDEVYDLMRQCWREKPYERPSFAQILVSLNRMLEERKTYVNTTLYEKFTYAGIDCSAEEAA
MEASURED PROPERTY: Ki

| SMI | MEASURED PROPERTY | VALUE OBSERVED |
| --- | --- | --- |
| OC[C@@H]1CCCN1Cc1onc(-c2ccc(F)cc2)c1-c1ccnc(NC2CCCCC2)n1 | Ki | > 1 µM |

Kindly note: TIE2 (Homo sapiens), OC1CCN(Cc2onc(-c3ccc(F)cc3)c2-c2ccnc(NC3CCCCC3)n2)CC1 , Ki value reported: > 1 µM

---

SYSTEM NAME: PDK1 (Homo sapiens, UniProt O15530)
Sequence (O15530 1-556): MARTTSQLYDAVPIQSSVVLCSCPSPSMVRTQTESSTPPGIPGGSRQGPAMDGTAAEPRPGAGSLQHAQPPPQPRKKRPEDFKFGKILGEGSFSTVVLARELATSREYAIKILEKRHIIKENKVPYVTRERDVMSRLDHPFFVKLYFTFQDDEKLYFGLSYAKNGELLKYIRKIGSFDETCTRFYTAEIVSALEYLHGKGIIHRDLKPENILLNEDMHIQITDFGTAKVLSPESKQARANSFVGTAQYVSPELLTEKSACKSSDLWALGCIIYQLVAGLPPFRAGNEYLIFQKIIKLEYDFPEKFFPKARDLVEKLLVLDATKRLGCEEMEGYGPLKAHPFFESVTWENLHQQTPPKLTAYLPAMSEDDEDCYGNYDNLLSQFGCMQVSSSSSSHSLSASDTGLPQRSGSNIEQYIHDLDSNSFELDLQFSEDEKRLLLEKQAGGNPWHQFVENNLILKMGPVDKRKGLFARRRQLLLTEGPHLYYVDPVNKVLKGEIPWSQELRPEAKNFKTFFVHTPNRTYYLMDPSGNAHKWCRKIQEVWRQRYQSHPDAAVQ
MEASURED PROPERTY: Ki

| SMI | Ki |
| --- | --- |
| OC[C@@H]1CCCN1Cc1onc(-c2ccc(F)cc2)c1-c1ccnc(NC2CCCCC2)n1 | > 1 µM |

Consider the additional compound presented here.
Note to self: Ki recorded for Fc1ccc(-c2noc(CN3CCCCC3)c2-c2ccnc(NC3CCCCC3)n2)cc1 was > 1 µM
